target under test: Pim3 kinase (Homo sapiens)
measurement notes: Pim3 AlphaScreen assay (high ATP)
pIC50: −log10 of the molar value.
endpoint: pIC50

The cases that follow already have their pIC50 on record.
C[C@H]1C[C@@H](c2ccncc2NC(=O)c2nc(-c3nc(F)ccc3F)ccc2N)C[C@@H](O)[C@]1(C)O :: 6.22
C[C@H]1C[C@@H](c2ccncc2NC(=O)c2ccc(F)c(-c3c(F)cc(C(C)(C)C(=O)O)cc3F)n2)C[C@@H](N)[C@]1(C)O :: 7.23
CC(C)OCc1cc(F)c(-c2nc(C(=O)Nc3cnccc3[C@H]3C[C@@H](N)[C@](C)(O)[C@@H](C)C3)ccc2F)c(F)c1 :: 8.79

a: C[C@H]1C[C@@H](c2ccncc2NC(=O)c2ccc(F)c(-c3c(F)cc(C4(O)CCCC4)cc3F)n2)C[C@@H](O)[C@]1(C)O
b: C[C@H]1C[C@@H](c2ccncc2NC(=O)c2nc(-c3c(F)cc(C4(O)CCOCC4)cc3F)sc2N)C[C@@H](N)[C@]1(C)O
c: C[C@H]1C[C@@H](c2ccncc2NC(=O)c2ccc(F)c(-c3c(F)cc(C4(F)CCOCC4)cc3F)n2)C[C@@H](N)[C@]1(C)O
# sort list by recorded pIC50, greatest to least List the labels, following the order given in the request.
b, c, a
